Give measured cell number change for each item. Keep answers brief.
Assay: qHTS Assay for Lipid Storage Modulators in Drosophila S3 Cells;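 note: cells counted by Cell Tracker Red CMTPX staining in the red channel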
Conditions: BODIPY lipid droplet fluorescence, 18-24 h, cells fed with added oleic acid; measured here: cell count max response
About 2,100 (0.66%) of roughly 320,000 compounds were called active. Inconclusive results (about 53%) are left out. Shown is part of a subset that was picked to be rich in actives.
Answers are plain numbers, in %.

Use the examples below as a reference point.
>  <compound>
CC(=O)C1=C(O)C(=O)N(Cc2ccccc2)C1c1ccccc1F (stereo unspecified)

>  <cell number change, %>
-6.03

$$$$
>  <compound>
CCN1CCN(S(=O)(=O)c2ccc(Cl)c(C(=O)N(C)Cc3ccco3)c2)CC1

>  <cell number change, %>
2.03

$$$$
>  <compound>
O=C(Nc1ccc(Cl)c(S(=O)(=O)N2CCOCC2)c1)c1ccc2c(c1)OCCO2

>  <cell number change, %>
19.2

$$$$
>  <compound>
O=C(COc1ccccc1)NNC(=S)NC(=O)c1ccc(Cl)cc1Cl

>  <cell number change, %>
-11.7

$$$$
>  <compound>
O=C(Cn1cccc1C(=O)c1ccccc1)NCCCN1CCOCC1

>  <cell number change, %>
-0.598

$$$$
>  <compound>
COc1ccc(S(=O)(=O)Oc2ccccc2C(=S)N2CCOCC2)cc1

>  <cell number change, %>
-29.9

$$$$
>  <compound>
COc1cc(/C=C/C(=O)NC(C)(C)C)ccc1OCc1ccccc1

>  <cell number change, %>
-27.6

$$$$
>  <compound>
Nc1ccccc1-c1ccccc1N

>  <cell number change, %>
12.1

$$$$
>  <compound>
CC1=CC2=NC(=O)/C(=C\c3ccc(-c4ccc(Cl)cc4)o3)C(=N)N2O1

>  <cell number change, %>
5.59

$$$$
>  <compound>
CCC(=O)Nc1nn(C)c2nc3c(C)cccc3cc12

>  <cell number change, %>
-9.14

$$$$

List cell number change for every entry below, keeping the order given.
1. CCc1c(C)nc(N2CCN(c3ccccc3F)CC2)[nH]c1=O
2. Cc1cc(NC(=O)c2ocnc2C)no1
3. Cn1c2ccccc2c2nnc(SCC(=O)NC3CC3)nc21
4. COc1ccc(CC(=O)N/N=C(\C)CC(=O)Nc2ccc3c(c2)OCCO3)cc1OC
5. COc1ccc(C(=O)CC2SC(N)=NC2=O)cc1 (stereo unspecified)

### Response
1: 15.2; 2: -15.2; 3: -0.952; 4: -9.52; 5: 30

### Prompt Recorded cell number change of CN(C)C(=O)N1CCCC(C(=O)NCc2ccccc2)C1 (stereo unspecified) , please.
### Response -23.4

---

Assay: qHTS Assay for Lipid Storage Modulators in Drosophila S3 Cells;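 note: cells counted by Cell Tracker Red CMTPX staining in the red channel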
Conditions: BODIPY lipid droplet fluorescence, 18-24 h, cells fed with added oleic acid; measured here: cell count max response
In all, about 320,000 compounds went through this assay and about 2,100 (0.66%) were called active. Another 53% or so got no clear call; they are omitted. Only a selection was taken, and actives are over-represented in it overall.
measure.name: cell number change (%)
Give bare numbers, in %.

>  <compound>
CCCn1nc(C(=O)N2CCN(S(=O)(=O)c3ccc(C)c(C)c3)CC2)c2ccccc2c1=O

>  <readout.number>
29.1

$$$$

List cell number change for every entry below, keeping the order given.
1. CS/C(=N/S(=O)(=O)c1ccc(C)cc1)c1ccccc1
2. CCCN(CCC)CCCNC(=O)c1cn(CC)c2ccc(S(=O)(=O)N3CCOCC3)cc2c1=O
3. CCOC(=O)COc1ccccc1C(=O)c1cnn(-c2ccccc2)c1
4. CCN1CCCC1CNS(=O)(=O)c1c(C)cc(C)cc1C (centres undefined)
5. CN(C(=O)COC(=O)CCc1nc2ccccc2c(=O)[nH]1)C1CCS(=O)(=O)C1 (centres undefined)

### Response
1. -26.1
2. 5.34
3. 3.88
4. -11.3
5. -1.94
